- TEST_DESCRIPTION: in vivo
- REPORTED_CONDITIONS: Sprague-Dawley, rat, po, 1.5 mg/kg
RECORDED_ENDPOINT: AUC(0-inf) (ng·h/mL)
Just the number in ng·h/mL, nothing appended.

Quick check: AUC(0-inf) of CC(C)n1c(/C=C/C(O)CC(O)CC(=O)O)c(-c2ccc(F)cc2)c2ccccc21 (stereo not shown) ?
950

* * *

Listed compounds paired with reported inhibition at 7.5 min, 1 μM
- Tested on: CYP2C9
- TEST_DESCRIPTION: in vitro
- REPORTED_CONDITIONS: Sprague-Dawley, rat, microsomes, pH 7.4
Just the number in %, nothing appended.

Quick check: inhibition at 7.5 min, 1 μM of O=c1c(O)c(-c2ccc(O)c(O)c2)oc2cc(O)cc(O)c12 ?
15.1

Quick check: inhibition at 7.5 min, 1 μM of C[C@@H]1O[C@@H](Oc2c(-c3ccc(O)c(O)c3)oc3cc(O)cc(O)c3c2=O)[C@H](O)[C@H](O)[C@H]1O ?
24.2

Quick check: inhibition at 7.5 min, 1 μM of COc1cc(-c2oc3cc(O)cc(O)c3c(=O)c2O)ccc1O ?
19.6

Quick check: inhibition at 7.5 min, 1 μM of O=c1c(-c2ccc(O)cc2)coc2cc(O[C@@H]3O[C@H](CO)[C@@H](O)[C@H](O)[C@H]3O)ccc12 ?
0.95

Quick check: inhibition at 7.5 min, 1 μM of O=c1cc(-c2ccccc2)oc2cc(O)cc(O)c12 ?
6.86

Measured values drawn from patent US20130184227A1 for this set.
